Just for reference, patent US20120276102A1 is where these values come from.

Each entry below lists one item and its recorded A450 (13 nM Ab) value.
Target: T1, human gamma (γ) common chain expressed on CHO cells (human, UniProt P31785 23-369)
T1 construct: whole, on cells; Control protein; also called human IL-2R-γ common subunit; human γ-common
T1 sequence (looked up): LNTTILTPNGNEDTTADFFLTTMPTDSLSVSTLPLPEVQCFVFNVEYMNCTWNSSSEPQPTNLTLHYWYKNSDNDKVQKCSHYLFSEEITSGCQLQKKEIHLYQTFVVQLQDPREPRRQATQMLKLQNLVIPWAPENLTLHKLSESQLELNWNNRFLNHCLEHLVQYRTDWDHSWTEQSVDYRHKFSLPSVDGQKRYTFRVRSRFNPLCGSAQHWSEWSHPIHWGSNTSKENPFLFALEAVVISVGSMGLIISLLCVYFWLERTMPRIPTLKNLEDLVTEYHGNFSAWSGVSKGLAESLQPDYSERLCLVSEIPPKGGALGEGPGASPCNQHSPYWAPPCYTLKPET
Assay: cell ELISA, CHO cells
Respond with the bare value in A450.

AbJ (antibody, IgG1, V domains shown, As for AbA: IgG1/lambda, CDR3 graft, residue limits derived; also called VH3/VLP) VH: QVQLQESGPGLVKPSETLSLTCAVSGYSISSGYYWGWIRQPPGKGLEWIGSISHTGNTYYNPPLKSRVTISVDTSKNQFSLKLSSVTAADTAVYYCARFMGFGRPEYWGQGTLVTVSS VL: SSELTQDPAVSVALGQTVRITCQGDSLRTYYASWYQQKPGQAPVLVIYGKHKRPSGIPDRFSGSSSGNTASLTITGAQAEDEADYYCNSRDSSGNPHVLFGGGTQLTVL    0.126
AbB (antibody, IgG1, V domains shown, As for AbA: IgG1/lambda, CDR3 graft, residue limits derived; also called VHP/VL3) VH: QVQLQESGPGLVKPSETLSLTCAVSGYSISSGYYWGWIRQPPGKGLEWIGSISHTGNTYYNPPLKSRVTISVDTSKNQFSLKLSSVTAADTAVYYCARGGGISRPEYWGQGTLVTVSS VL: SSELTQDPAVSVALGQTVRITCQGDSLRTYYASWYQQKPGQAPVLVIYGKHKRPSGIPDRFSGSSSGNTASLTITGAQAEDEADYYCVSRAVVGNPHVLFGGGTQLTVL    0.107

Field A450 (13 nM Ab) (entry AbI (antibody, IgG1, V domains shown, As for AbA: IgG1/lambda, CDR3 graft, residue limits derived; also called VHP/VL24) VH: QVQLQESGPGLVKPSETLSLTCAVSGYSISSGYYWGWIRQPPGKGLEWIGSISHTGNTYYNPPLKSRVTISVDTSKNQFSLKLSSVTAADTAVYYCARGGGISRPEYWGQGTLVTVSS VL: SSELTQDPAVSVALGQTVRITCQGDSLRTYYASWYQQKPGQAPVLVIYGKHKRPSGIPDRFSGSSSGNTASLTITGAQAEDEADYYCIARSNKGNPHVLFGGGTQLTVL ) reads 0.107
